Molecular target: T1, human melanocortin 4 receptor (human, UniProt P32245 1-332)
T1 construct: whole, on cells; cAMP assay on whole BHK cells; also called MC4R; human MC4 receptor
T1 sequence (P32245 whole entry): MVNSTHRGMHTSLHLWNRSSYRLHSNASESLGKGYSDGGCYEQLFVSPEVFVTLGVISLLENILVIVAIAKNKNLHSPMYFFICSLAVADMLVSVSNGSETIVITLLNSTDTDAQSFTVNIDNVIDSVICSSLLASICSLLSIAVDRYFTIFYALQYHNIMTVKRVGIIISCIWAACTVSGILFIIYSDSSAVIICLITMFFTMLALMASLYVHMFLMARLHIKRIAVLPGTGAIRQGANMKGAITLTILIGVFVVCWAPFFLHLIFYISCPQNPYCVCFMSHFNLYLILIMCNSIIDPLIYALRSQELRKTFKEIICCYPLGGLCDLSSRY
Experiment: competition with 125-NDP-α-MSH, BHK human MC4R membranes
Positions of bridges follow the written chain, without caps; N, C: chain ends. Non-standard residues stand in square brackets, D forms with d. Lys(CH2CO2H)2 = N[C@@H](CCCCN(CC(=O)O)CC(=O)O)C(=O)O; Phe(3,4-(OMe)2) = COc1ccc(C[C@H](N)C(=O)O)cc1OC; 2Nal = N[C@@H](Cc1ccc2ccccc2c1)C(=O)O; Hyp = O=C(O)[C@@H]1C[C@@H](O)CN1; Thz = O=C(O)[C@@H]1CSCN1
READOUT NAME: log10 of Ki (log10 of the value in pM)

BINDER	READOUT NUMBER
cyclo(C[Thz]H[dF]HWCAA[Lys(CH2CO2H)2]AW) (disulfide 1-7; SMILES C[C@@H]1NC(=O)[C@H](C)NC(=O)[C@@H]2CSSC[C@H](NC(=O)[C@H](Cc3c[nH]c4ccccc34)NC(=O)[C@H](C)NC(=O)[C@H](CCCCN(CC(=O)O)CC(=O)O)NC1=O)C(=O)N1CSC[C@H]1C(=O)N[C@@H](Cc1c[nH]cn1)C(=O)N[C@H](Cc1ccccc1)C(=O)N[C@@H](Cc1c[nH]cn1)C(=O)N[C@@H](Cc1c[nH]c3ccccc13)C(=O)N2, also called c[c[Cys-THAZ-His-D-Phe-His-Trp-Cys]-Ala-Ala-Lys(CH2COOH)2-Ala-Trp]) [Chem. 104]	3.95
cyclo(CAH[dF]R[Phe(3,4-(OMe)2)]CAKKKW) (disulfide 1-7; SMILES COc1ccc(C[C@@H]2NC(=O)[C@H](CCCNC(=N)N)NC(=O)[C@@H](Cc3ccccc3)NC(=O)[C@H](Cc3c[nH]cn3)NC(=O)[C@H](C)NC(=O)[C@@H]3CSSC[C@H](NC2=O)C(=O)N[C@@H](C)C(=O)N[C@@H](CCCCN)C(=O)N[C@@H](CCCCN)C(=O)N[C@@H](CCCCN)C(=O)N[C@@H](Cc2c[nH]c4ccccc24)C(=O)N3)cc1OC, also called c[c[Cys-Ala-His-D-Phe-Arg-3,4-DiMeo-Phe-Cys]-Ala-Lys-Lys-Lys-Trp]) [Chem. 67]	2.98
cyclo(CPH[dF]HWCAKKKW) (disulfide 1-7, also called c[c[Cys-Pro-His-D-Phe-His-Trp-Cys]-Ala-Lys-Lys-Lys-Trp]) [Chem. 62]	2.11
cyclo(C[Hyp]H[dF]HWCAKKKR) (disulfide 1-7; SMILES C[C@@H]1NC(=O)[C@@H]2CSSC[C@H](NC(=O)[C@H](CCCNC(=N)N)NC(=O)[C@H](CCCCN)NC(=O)[C@H](CCCCN)NC(=O)[C@H](CCCCN)NC1=O)C(=O)N1C[C@H](O)C[C@H]1C(=O)N[C@@H](Cc1c[nH]cn1)C(=O)N[C@H](Cc1ccccc1)C(=O)N[C@@H](Cc1c[nH]cn1)C(=O)N[C@@H](Cc1c[nH]c3ccccc13)C(=O)N2, also called c[c[Cys-Hyp-His-D-Phe-His-Trp-Cys]-Ala-Lys-Lys-Lys-Arg]) [Chem. 97]	1.70
cyclo(CVH[dF]RWCVH[dF]RW) (disulfide 1-7; SMILES CC(C)[C@@H]1NC(=O)[C@@H]2CSSC[C@H](NC(=O)[C@H](Cc3c[nH]c4ccccc34)NC(=O)[C@H](CCCNC(=N)N)NC(=O)[C@@H](Cc3ccccc3)NC(=O)[C@H](Cc3c[nH]cn3)NC1=O)C(=O)N[C@@H](C(C)C)C(=O)N[C@@H](Cc1c[nH]cn1)C(=O)N[C@H](Cc1ccccc1)C(=O)N[C@@H](CCCNC(=N)N)C(=O)N[C@@H](Cc1c[nH]c3ccccc13)C(=O)N2, also called c[c[Cys-Val-His-D-Phe-Arg-Trp-Cys]-Val-His-D-Phe-Arg-Trp]) [Chem. 36]	2.08
cyclo(CAH[dF]R[2Nal]CAKKKW) (disulfide 1-7; SMILES C[C@@H]1NC(=O)[C@@H]2CSSC[C@H](NC(=O)[C@H](Cc3ccc4ccccc4c3)NC(=O)[C@H](CCCNC(=N)N)NC(=O)[C@@H](Cc3ccccc3)NC(=O)[C@H](Cc3c[nH]cn3)NC1=O)C(=O)N[C@@H](C)C(=O)N[C@@H](CCCCN)C(=O)N[C@@H](CCCCN)C(=O)N[C@@H](CCCCN)C(=O)N[C@@H](Cc1c[nH]c3ccccc13)C(=O)N2, also called c[c[Cys-Ala-His-D-Phe-Arg-2-Nal-Cys]-Ala-Lys-Lys-Lys-Trp]) [Chem. 79]	1.48
cyclo(CH[dF]RWGCH[dF]RWG) (disulfide 1-7; SMILES N=C(N)NCCC[C@@H]1NC(=O)[C@@H](Cc2ccccc2)NC(=O)[C@H](Cc2c[nH]cn2)NC(=O)[C@@H]2CSSC[C@H](NC(=O)CNC(=O)[C@H](Cc3c[nH]c4ccccc34)NC1=O)C(=O)N[C@@H](Cc1c[nH]cn1)C(=O)N[C@H](Cc1ccccc1)C(=O)N[C@@H](CCCNC(=N)N)C(=O)N[C@@H](Cc1c[nH]c3ccccc13)C(=O)NCC(=O)N2, also called c[c[Cys-His-D-Phe-Arg-Trp-Gly-Cys]-His-D-Phe-Arg-Trp-Gly]) [Chem. 4]	2.84
cyclo(C[Hyp][dF]RWC[Hyp][dF]RW) (bridge 1-6 via methylene bridge (S-CH2-S), also called c[c[Cys-Hyp-D-Phe-Arg-Trp-Cys]-Hyp-D-Phe-Arg-Trp]; Note: methylene bridge) [Chem. 26]	2.64
cyclo(CH[dF]RWRCH[dF]RWR) (disulfide 1-7; SMILES N=C(N)NCCC[C@@H]1NC(=O)[C@H](Cc2c[nH]c3ccccc23)NC(=O)[C@H](CCCNC(=N)N)NC(=O)[C@@H](Cc2ccccc2)NC(=O)[C@H](Cc2c[nH]cn2)NC(=O)[C@@H]2CSSC[C@H](NC1=O)C(=O)N[C@@H](Cc1c[nH]cn1)C(=O)N[C@H](Cc1ccccc1)C(=O)N[C@@H](CCCNC(=N)N)C(=O)N[C@@H](Cc1c[nH]c3ccccc13)C(=O)N[C@@H](CCCNC(=N)N)C(=O)N2, also called c[c[Cys-His-D-Phe-Arg-Trp-Arg-Cys]-His-D-Phe-Arg-Trp-Arg]) [Chem. 68]	4.02
CAHFXWCAHFXW (D-Phe 4, 10; HArg 5, 11; disulphide Cys1-Cys7; head-to-tail amide Cys1-Trp12, also called c[c[Cys-Ala-His-D-Phe-HArg-Trp-Cys]-Ala-His-D-Phe-HArg-Trp]) [Chem. 22]	1.78

From: patent US20200223889A1
